Recorded measurements of MIC P. acnes, one per entry
- Test system: Propionibacterium acnes ATCC 6919
- test-method-notes: MIC, agar dilution method NCCLS M11-A6, Brucella agar, anaerobic (Table 9, superscript c)
- Type: cell-based
- recorded-conditions: ATCC 6919
Non-standard residues stand in square brackets, D forms with d. Residues, ends and D or L forms follow the SMILES beside them. *: point of attachment. Lauroyl = CCCCCCCCCCCC(=O)*
property-measured: MIC P. acnes (c ug/mL)

{"compound": "CCCCCCCCCCCC(=O)N[C@H](CCCNC(=N)N)C(=O)N[C@H](CO)C(=O)N[C@H](CCCNC(=N)N)C(=O)N[C@H](Cc1c[nH]c2ccccc12)C(=O)N[C@H](CCCNC(=N)N)C(=O)N[C@H](CC(=O)O)C(=O)N[C@@H](C(=O)N[C@H](C)C(=O)N[C@H](CCCNC(=N)N)C(=O)N[C@H](CC(N)=O)C(=O)N[C@H](Cc1ccccc1)C(=O)N[C@H](CC(C)C)C(=O)N[C@H](CCCNC(=N)N)C(N)=O)C(C)C [Peptide 210, Lauryl-rsrwrdvarnflr-NH2] (Lauroyl-[dR][dS][dR][dW][dR][dD][dV][dA][dR][dN][dF][dL][dR]-NH2)", "number": 8}
{"compound": "CCCCCCCCCCCC(=O)N[C@H](CCCNC(=N)N)C(=O)N[C@H](Cc1c[nH]c2ccccc12)C(=O)N[C@H](CCCNC(=N)N)C(=O)N[C@H](CC(=O)O)C(=O)N[C@@H](C(=O)N[C@H](C)C(=O)N[C@H](CCCNC(=N)N)C(N)=O)C(C)C [Peptide 122, Lauryl-rwrdvar-NH2] (Lauroyl-[dR][dW][dR][dD][dV][dA][dR]-NH2)", "number": 32}

* * *

- Test system: Pseudomonas aeruginosa ATCC 27853
- test-method-notes: MIC, NCCLS M7-A6 broth microdilution (Table 9, no superscript)
- Assay type: cell-based
- recorded-conditions: ATCC 27853
Non-standard residues stand in square brackets, D forms with d. Residues, ends and D or L forms follow the SMILES beside them. *: point of attachment. Lauroyl = CCCCCCCCCCCC(=O)*

{"molecule": "CCCCCCCCCCCC(=O)N[C@@H](CO)C(=O)N[C@@H](CCCNC(=N)N)C(=O)N[C@@H](Cc1c[nH]c2ccccc12)C(=O)N[C@@H](CCCNC(=N)N)C(=O)N[C@@H](CC(=O)O)C(=O)N[C@H](C(=O)N[C@@H](C)C(N)=O)C(C)C [Peptide 104, Lauryl-SRWRDVA-NH2] (Lauroyl-SRWRDVA-NH2)", "tested-on": "Pseudomonas aeruginosa ATCC 27853", "MIC P. aeruginosa": ">64 µg/mL"}
{"molecule": "CCCCCCCCCCCC(=O)N[C@H](Cc1c[nH]c2ccccc12)C(=O)N[C@H](CCCNC(=N)N)C(=O)N[C@H](CC(=O)O)C(=O)N[C@@H](C(=O)N[C@H](C)C(=O)N[C@H](CCCNC(=N)N)C(=O)N[C@H](CC(N)=O)C(N)=O)C(C)C [Peptide 123, Lauryl-wrdvarn-NH2] (Lauroyl-[dW][dR][dD][dV][dA][dR][dN]-NH2)", "tested-on": "Pseudomonas aeruginosa ATCC 27853", "MIC P. aeruginosa": ">64 µg/mL"}
{"molecule": "CCCCCCCCCCCC(=O)N[C@H](CCCNC(=N)N)C(=O)N[C@H](CO)C(=O)N[C@H](CCCNC(=N)N)C(=O)N[C@H](Cc1c[nH]c2ccccc12)C(=O)N[C@H](CCCNC(=N)N)C(=O)N[C@H](CC(=O)O)C(=O)N[C@@H](C(=O)N[C@H](C)C(=O)N[C@H](CCCNC(=N)N)C(=O)N[C@H](C)C(=O)N[C@H](Cc1ccccc1)C(=O)N[C@H](CC(C)C)C(=O)N[C@H](CCCNC(=N)N)C(N)=O)C(C)C [Peptide 226, Lauryl-rsrwrdvaraflr-NH2] (Lauroyl-[dR][dS][dR][dW][dR][dD][dV][dA][dR][dA][dF][dL][dR]-NH2)", "tested-on": "Pseudomonas aeruginosa ATCC 27853", "MIC P. aeruginosa": ">64 µg/mL"}

Cited source for all entries: patent US20050282755A1
